- measured_target: Cytochrome P450 3A4 (Homo sapiens)
- Sequence (P08684 whole entry): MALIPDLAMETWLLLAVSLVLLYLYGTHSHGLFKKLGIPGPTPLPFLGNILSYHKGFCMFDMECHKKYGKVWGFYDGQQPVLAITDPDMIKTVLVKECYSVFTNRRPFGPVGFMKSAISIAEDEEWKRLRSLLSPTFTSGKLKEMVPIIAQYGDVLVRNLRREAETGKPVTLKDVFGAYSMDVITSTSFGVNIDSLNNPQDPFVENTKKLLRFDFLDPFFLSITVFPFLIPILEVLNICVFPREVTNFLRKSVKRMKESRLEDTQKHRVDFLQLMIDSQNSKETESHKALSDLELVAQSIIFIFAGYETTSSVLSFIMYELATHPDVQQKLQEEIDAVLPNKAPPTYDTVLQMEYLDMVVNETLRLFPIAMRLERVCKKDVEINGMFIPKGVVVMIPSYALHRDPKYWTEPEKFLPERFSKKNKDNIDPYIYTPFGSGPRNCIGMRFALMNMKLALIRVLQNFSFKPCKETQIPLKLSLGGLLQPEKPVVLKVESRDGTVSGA
- experiment_summary: Inhibition of CYP3A4 after 30 mins by fluorescence microplate reader assay
- Type: ADME
- reported_conditions: read-out: IC50
test_readout: IC50 (µM)

Guide cases for IC50, answers given:
CCCCCCCC1O[C@H](CC/C(C)=C/COc2c3ccoc3cc3oc(=O)ccc23)C(C)(C)O1 (some centres undefined) ... 0.13
C/C(=C\COc1c2ccoc2cc2oc(=O)ccc12)CC[C@@H](O)C(C)(C)O ... 1.58

a = CC(C)=CCC/C(C)=C/COc1c2ccoc2cc2oc(=O)ccc12
b = CCCCCCCCCC1O[C@H](CC/C(C)=C/COc2c3ccoc3cc3oc(=O)ccc23)C(C)(C)O1 (some centres undefined)
Short answer wanted: higher IC50, a or b ? Please respond with the label that marks your chosen entry.
a
(a: 2.42 µM, b: 0.27 µM)
